B1: POU domain, class 3, transcription factor 1, residues 247 to 324; numbered along this chain, Q03052 (parent)
chain: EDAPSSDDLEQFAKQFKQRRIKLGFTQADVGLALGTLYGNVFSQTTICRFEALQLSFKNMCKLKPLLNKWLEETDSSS

# Variants of: B1
# method notes: abundance fitness (aPCA) (normalised: wild type 0, dead -1); higher = more abundant; growth selection in yeast, the domain comes from the species named
# stated conditions: Homo sapiens
Each entry below lists one item and its recorded abundance fitness value.
Respond using a number only.

Worked set:
## Input Give abundance fitness for S56D
## Output 0.031

## Input Give abundance fitness for F57C
## Output -0.394

## Input Give abundance fitness for Q44W
## Output -0.55

## Input Give abundance fitness for C48N
## Output -0.21

## Input Give abundance fitness for A28L
## Output -0.405

## Input Give abundance fitness for K58S
## Output -0.152

## Input Give abundance fitness for L37K
## Output 0.137

## Input Give abundance fitness for K64Q
## Output -0.009

---
## Input Give abundance fitness for Q54T
## Output -0.145

## Input Give abundance fitness for A28P
## Output -0.758

## Input Give abundance fitness for S56F
## Output -0.719

## Input Give abundance fitness for M60S
## Output -0.448

## Input Give abundance fitness for L23D
## Output -0.301

## Input Give abundance fitness for L37E
## Output -0.062

## Input Give abundance fitness for Q44V
## Output -0.209

## Input Give abundance fitness for W70V
## Output -0.58

## Input Give abundance fitness for L23S
## Output -0.59
